Reference source: patent US20240317840A1

Entries and their IC50
Molecular target: HBsAg clinical mutation T126S (Hepatitis B virus)
Experiment: sandwich ELISA, captured mutant HBsAg from culture supernatant;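 further: Anti-HBsAg antibodies tested for binding to mutant HBsAg secreted by stably transfected cell lines, supernatant incubated 1 h on antibody-coated plates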

Binder	Result
NOV3357 (antibody, human IgG1, kappa, V domains shown, Full human IgG1 (kappa) expressed in CHO cells) VH: EVQLLESGGGLVQPGGSLRLSCAASGFTFSPHAMSWVRQAPGKGLEWVSAISDSGGSTHYADSVKGRFTISRDNSKNTLYLQMNSLRAEDTAVYYCARDDDGWSGYDYWFDYWGQGTLVTVSS VL: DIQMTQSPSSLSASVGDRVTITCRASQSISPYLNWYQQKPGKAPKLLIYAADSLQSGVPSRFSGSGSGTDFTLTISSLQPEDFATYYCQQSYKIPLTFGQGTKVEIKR	0.22 nM

Attention now turns to another entry.
Exercise: I would be grateful if you could share the reported IC50 for NOV3842 (antibody, human IgG1, lambda, V domains shown, Full human IgG1 (lambda) expressed in CHO cells) VH: EVQLLESGGGLVQPGGSRRLSCAASGFTFSYYGMNWVRQAPGKGLEWVSGITNVGSITYYADTVKGRFSISRDNSKNTLFLQMNSLRAEDTAVYYCAKVGVRSSSGMWDLDYWGQGTLVTVSS VL: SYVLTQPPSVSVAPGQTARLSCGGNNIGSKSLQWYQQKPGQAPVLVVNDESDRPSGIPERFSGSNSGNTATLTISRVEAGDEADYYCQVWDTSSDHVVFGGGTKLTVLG .
Solution: 0.042 nM
